Taken from ChEMBL document CHEMBL2016433.

tested on: U-937; test: Induction of cell death in human U937 cells assessed at 1 to 100 microM after 24 hrs by trypan blue exclusion method relative to untreated control; assay type: functional
metric-name: Activity (%)
Reply with just the number (in %).

Using the record for `CCc1c(CSS[C@@H]2O[C@H](CO)[C@@H](O)[C@H](O)[C@H]2O)c(CC)c(CSS[C@@H]2O[C@H](CO)[C@@H](O)[C@H](O)[C@H]2O)c(CC)c1CSS[C@@H]1O[C@H](CO)[C@@H](O)[C@H](O)[C@H]1O` , state its measured Activity. 25

----------
tested on: U-937; assay: Cytostatic against human U937 cells assessed as reduction in absolute number of total cells after 24 hrs by haemocytometry; format: functional, cell-based
Active and inactive are the calls of the source. The rule behind the calls is not given here.
metric-name: Activity

query-smiles: CC(=O)OC[C@H]1O[C@@H](SSCc2cccc(CSS[C@@H]3O[C@H](COC(C)=O)[C@@H](OC(C)=O)[C@H](OC(C)=O)[C@H]3OC(C)=O)c2)[C@H](OC(C)=O)[C@@H](OC(C)=O)[C@@H]1OC(C)=O
metric-name: Activity
observed-value: Active
--
query-smiles: CC(=O)OC[C@H]1O[C@@H](SSCc2cc(CSS[C@@H]3O[C@H](COC(C)=O)[C@@H](OC(C)=O)[C@H](OC(C)=O)[C@H]3OC(C)=O)cc(CSS[C@@H]3O[C@H](COC(C)=O)[C@@H](OC(C)=O)[C@H](OC(C)=O)[C@H]3OC(C)=O)c2)[C@H](OC(C)=O)[C@@H](OC(C)=O)[C@@H]1OC(C)=O
metric-name: Activity
observed-value: Dose-dependent effect
--
query-smiles: CCc1c(CSS[C@@H]2O[C@H](COC(C)=O)[C@H](OC(C)=O)[C@H](OC(C)=O)[C@H]2OC(C)=O)c(CC)c(CSS[C@@H]2O[C@H](COC(C)=O)[C@H](OC(C)=O)[C@H](OC(C)=O)[C@H]2OC(C)=O)c(CC)c1CSS[C@@H]1O[C@H](COC(C)=O)[C@H](OC(C)=O)[C@H](OC(C)=O)[C@H]1OC(C)=O
metric-name: Activity
observed-value: Dose-dependent effect
--
query-smiles: CC(=O)OC[C@H]1O[C@@H](SSCc2cccc(CSS[C@@H]3O[C@H](COC(C)=O)[C@H](OC(C)=O)[C@H](OC(C)=O)[C@H]3OC(C)=O)c2)[C@H](OC(C)=O)[C@@H](OC(C)=O)[C@H]1OC(C)=O
metric-name: Activity
observed-value: Active
